# Study Target: Serine/threonine-protein kinase Chk1 (Homo sapiens)
# Sequence (O14757 whole entry): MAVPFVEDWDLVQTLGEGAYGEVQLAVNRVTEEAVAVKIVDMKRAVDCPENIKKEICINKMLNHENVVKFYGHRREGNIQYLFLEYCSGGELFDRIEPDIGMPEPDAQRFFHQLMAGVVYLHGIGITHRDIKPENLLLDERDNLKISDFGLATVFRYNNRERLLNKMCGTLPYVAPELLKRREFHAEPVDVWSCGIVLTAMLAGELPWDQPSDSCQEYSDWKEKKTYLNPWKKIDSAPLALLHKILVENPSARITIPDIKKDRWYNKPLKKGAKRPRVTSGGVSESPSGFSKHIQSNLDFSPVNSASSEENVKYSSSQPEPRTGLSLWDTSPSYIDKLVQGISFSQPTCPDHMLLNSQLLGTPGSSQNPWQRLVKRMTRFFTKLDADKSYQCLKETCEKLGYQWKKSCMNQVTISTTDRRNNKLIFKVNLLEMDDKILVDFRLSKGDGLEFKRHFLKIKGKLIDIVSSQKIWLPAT
# Experiment: Inhibition of human recombinant Chk1
Parameter Measured: log10 of IC50 (log10 of the value in nM)
// do not treat as linear: log10 of IC50, unit nM

The cases that follow already have their log10 of IC50 on record.
[
  {
    "Smiles Input": "COc1cc(-c2ccc3c(c2)Nc2ccccc2NC3=O)ccc1Cl",
    "Study Target": "Serine/threonine-protein kinase Chk1 (Homo sapiens)",
    "log10 of IC50": 1.96
  },
  {
    "Smiles Input": "N#Cc1cccc(-c2ccc3c(c2)Nc2ccccc2NC3=O)c1",
    "Study Target": "Serine/threonine-protein kinase Chk1 (Homo sapiens)",
    "log10 of IC50": 2.99
  },
  {
    "Smiles Input": "COc1cc(-c2ccc3c(c2)Nc2ccccc2NC3=O)ccc1C(N)=O",
    "Study Target": "Serine/threonine-protein kinase Chk1 (Homo sapiens)",
    "log10 of IC50": 1.94
  },
  {
    "Smiles Input": "COc1ccccc1-c1ccc2c(c1)Nc1ccccc1NC2=O",
    "Study Target": "Serine/threonine-protein kinase Chk1 (Homo sapiens)",
    "log10 of IC50": 3.56
  },
  {
    "Smiles Input": "COc1cc(-c2ccc3c(c2)Nc2ccccc2NC3=O)ccc1O",
    "Study Target": "Serine/threonine-protein kinase Chk1 (Homo sapiens)",
    "log10 of IC50": 1.91
  }
]

# input for lookup
Sample `COC(=O)c1ccc(-c2ccc3c(c2)Nc2ccccc2NC3=O)cc1OC` ; log10 of IC50 observed: 1.72
